Test description: self-splicing fitness, log relative to wild type (ln ratio); higher = more splicing; Tetrahymena group I intron in knt gene, E. coli kanamycin selection, DiMSum; sequences stand for … in CUCUCU…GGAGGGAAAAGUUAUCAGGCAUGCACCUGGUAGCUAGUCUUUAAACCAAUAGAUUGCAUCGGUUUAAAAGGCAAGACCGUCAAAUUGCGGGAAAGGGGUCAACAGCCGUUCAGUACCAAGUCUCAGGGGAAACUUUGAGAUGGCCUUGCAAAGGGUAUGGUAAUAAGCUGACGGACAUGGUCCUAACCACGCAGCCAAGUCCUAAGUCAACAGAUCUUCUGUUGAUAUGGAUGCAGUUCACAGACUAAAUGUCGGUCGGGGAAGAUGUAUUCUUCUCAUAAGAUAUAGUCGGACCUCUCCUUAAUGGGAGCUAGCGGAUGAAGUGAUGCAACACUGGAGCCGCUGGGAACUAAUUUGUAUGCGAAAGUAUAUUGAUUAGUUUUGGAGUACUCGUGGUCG;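 also: selection with 25 µg/mL kanamycin versus none on LB agar overnight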
Experimental parameters: 30 °C
Readout label: self-splicing fitness (ln)
Kindly provide the number alone.

A selection of reference data follows.
UUUCAGCAAUAUUACGAGUA ... -1.3
CGUCAGCAAUAUUACGGACU ... -0.14
UUGGAGCAAUAUUACGACGA ... -0.765

## Input Return reported self-splicing fitness (ln). Input sequence: GAGGAGCAAUAUUACGAUAA
## Output -2.91

## Input Return reported self-splicing fitness (ln). Input sequence: CGUAAGCAAUAUUACGCCCG
## Output -1.93

## Input Return reported self-splicing fitness (ln). Input sequence: CGUUAGCAAUAUUACGGGUG
## Output -0.565

## Input Return reported self-splicing fitness (ln). Input sequence: UGCUAGCAAUAUUACGAAUG
## Output -0.8

## Input Return reported self-splicing fitness (ln). Input sequence: UGAAAGCAAUAUUACGGGUA
## Output -1.01
